Origin of the recorded values: patent US9670190B2

- target_under_test: CCR2 (Homo sapiens, UniProt P41597)
- Construct: expressed in transfected cells
- Sequence (P41597 whole entry, species assumed): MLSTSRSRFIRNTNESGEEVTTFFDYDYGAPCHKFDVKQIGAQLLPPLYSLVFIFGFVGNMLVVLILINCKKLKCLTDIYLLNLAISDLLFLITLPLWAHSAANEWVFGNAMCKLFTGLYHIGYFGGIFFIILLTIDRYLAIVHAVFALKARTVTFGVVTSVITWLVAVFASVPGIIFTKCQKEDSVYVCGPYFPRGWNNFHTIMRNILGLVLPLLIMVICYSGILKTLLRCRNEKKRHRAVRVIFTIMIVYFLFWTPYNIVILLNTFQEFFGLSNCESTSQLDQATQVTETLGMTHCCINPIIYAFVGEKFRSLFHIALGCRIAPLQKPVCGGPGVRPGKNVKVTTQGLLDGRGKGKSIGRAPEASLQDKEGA
- method_notes: CCR2 calcium activity assay (FLIPR Tetra) in HEK-Gqi5 cells stably expressing CCR2
- Assay type: cell-based
- condition: calcium activity on FLIPR Tetra, chemokine positive control agonist
Rule: % ANTAGONISM under 90% gives -1, otherwise 1.

Solved entries (count: 7):
O=S(=O)(Cc1ccccc1)c1ncncc1NS(=O)(=O)c1cc2ccccc2o1 [Compound 2]: 1
O=S(=O)(Nc1cncnc1SCc1ccccc1)c1cc2ccccc2o1 [Compound 1]: -1
O=S(=O)(Cc1ccccc1)c1cnccc1NS(=O)(=O)c1cc2ccccc2o1 [Compound 6]: 1
O=S(=O)(Nc1cc[n+]([O-])cc1SCc1ccccc1)c1cc2ccccc2o1 [Compound 5]: 1
O=S(=O)(Nc1cc(Cl)cnc1SCc1ccccc1)c1ccc(Cl)s1 [Compound 8]: -1
O=S(=O)(Nc1ccncc1SCc1ccccc1)c1cc2ccccc2o1 [Compound 4]: 1
O=S(=O)(Cc1ccccc1)c1ncc(Cl)cc1NS(=O)(=O)c1ccc(Cl)c(Cl)c1 [Compound 9]: 1

Now look at this entry.
Entry O=S(=O)(Nc1cc(Cl)cnc1[S+]([O-])Cc1ccccc1)c1ccc(Cl)s1 (stereo not drawn) [Compound 12] : is its % ANTAGONISM no less than 90%?
-1
